Assay: Acute toxicity test
Settings: in vivo, sc; subcutaneous, Wistar rat

# COMPOUND, LD50
data = [
    ("C[C@]12CCC(=O)C=C1CC[C@@H]1[C@@H]2[C@@H](O)C[C@]2(C)C(=O)CC[C@@H]12 [11β-OH-Δ^4 -A, 11β-hydroxy-4-androstene-3,17-dione]", "≥ 1000 mg/kg"),
]
